target: Neutrophil elastase (Homo sapiens); assay: Compound was evaluated In vitro for inhibition of human neutrophil elastase
Sequence (P08246 whole entry): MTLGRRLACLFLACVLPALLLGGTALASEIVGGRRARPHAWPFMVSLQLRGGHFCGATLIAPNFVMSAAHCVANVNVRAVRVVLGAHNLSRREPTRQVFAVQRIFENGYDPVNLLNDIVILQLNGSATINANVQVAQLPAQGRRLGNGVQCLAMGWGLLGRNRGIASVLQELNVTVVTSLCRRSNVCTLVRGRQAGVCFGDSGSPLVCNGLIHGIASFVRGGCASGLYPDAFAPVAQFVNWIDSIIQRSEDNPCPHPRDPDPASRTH
Residues, ends and D or L forms follow the SMILES beside them. *: point of attachment. Dansyl = CN(C)c1cccc2c(S(=O)(=O)*)cccc12; Cbz = O=C(OCc1ccccc1)*; CF3 = FC(F)(F)*
endpoint.label: pKi
One number for each entry, as −log10 of the molar value.

[
  {
    "compound": "CC(C)[C@H](NC(=O)[C@@H]1CCCN1C(=O)[C@H](C)NC(=O)[C@H](C)NC(=O)OCc1ccccc1)C(=O)C(F)(F)F (Cbz-AAPV-CF3)",
    "numeric.readout": 9.00
  },
  {
    "compound": "CC(C)[C@H](NC(=O)[C@@H]1CCCN1C(=O)[C@H](C)NC(=O)[C@H](C)NCC(=O)OC(C)(C)C)C(=O)C(F)(F)F",
    "numeric.readout": 7.36
  }
]

Given the compound CC(C)[C@H](NC(=O)[C@@H]1CCCN1C(=O)[C@H](C)NC(=O)[C@H](C)NS(=O)(=O)c1cccc2c(N(C)C)cccc12)C(=O)C(F)(F)F (Dansyl-AAPV-CF3) , what is its reported pKi?
8.00
